Target: Tyrosyl-tRNA synthetase, putative (Trypanosoma cruzi (strain CL Brener))
Test: Trypanosoma cruzi tyrosyl tRNA synthetase (TcYRS) SOP
Assay type: functional
Design: scale not given: direction of the effect not stated beside the values
Conditions: 30 µM
Parameter measured: Percent Effect (%)

Compound	Target	Value
CN(C)C(=O)CN1CCC2(CCN(Cc3nccs3)CC2)C1=O	Tyrosyl-tRNA synthetase, putative (Trypanosoma cruzi (strain CL Brener))	5
CCn1cnnc1C1CCN(C(=O)c2ccccc2OC)CC1	Tyrosyl-tRNA synthetase, putative (Trypanosoma cruzi (strain CL Brener))	7.32
CCN1CC2(CC1=O)CN(C(C)=O)CCN(C(=O)c1ccco1)C2 (stereo not given)	Tyrosyl-tRNA synthetase, putative (Trypanosoma cruzi (strain CL Brener))	3.7
Cc1nn(C)c(C)c1C1CCCN1C(=O)c1ccc(CN(C)C)cc1 (stereo not given)	Tyrosyl-tRNA synthetase, putative (Trypanosoma cruzi (strain CL Brener))	23.2
CCn1cnnc1CNC(=O)N1CCN(Cc2ccccc2)CC1	Tyrosyl-tRNA synthetase, putative (Trypanosoma cruzi (strain CL Brener))	30.6
CCCc1nc(NCCCO)c2c(n1)c(C)nn2CC	Tyrosyl-tRNA synthetase, putative (Trypanosoma cruzi (strain CL Brener))	12.8
CCc1nc(NCCCOC)c2c(n1)c(C)nn2C	Tyrosyl-tRNA synthetase, putative (Trypanosoma cruzi (strain CL Brener))	17.9
c1csc(CN2Cc3nccn3CC(Cn3cncn3)C2)n1 (stereo not given)	Tyrosyl-tRNA synthetase, putative (Trypanosoma cruzi (strain CL Brener))	13.6
CC(=O)Nc1nc(C2CCN(CC(N)=O)CC2)cs1	Tyrosyl-tRNA synthetase, putative (Trypanosoma cruzi (strain CL Brener))	-3.9
COc1ccc(CNC(=O)NC2CCN(CC(F)F)CC2)cc1C	Tyrosyl-tRNA synthetase, putative (Trypanosoma cruzi (strain CL Brener))	13.6
COc1ccccc1OC1(C(=O)O)CCN(c2nccnc2C)CC1	Tyrosyl-tRNA synthetase, putative (Trypanosoma cruzi (strain CL Brener))	23.5
CN1CC(=O)N(c2ccccc2)CC12CCN(Cc1cccnc1)C2 (stereo not given)	Tyrosyl-tRNA synthetase, putative (Trypanosoma cruzi (strain CL Brener))	1.24
Cc1nn(C)c(C)c1CC(=O)N1CCC(N(C)c2cccnn2)CC1	Tyrosyl-tRNA synthetase, putative (Trypanosoma cruzi (strain CL Brener))	4.88
CC(NC(=O)NCc1ccc(Cl)cc1)c1ccccn1 (stereo not given)	Tyrosyl-tRNA synthetase, putative (Trypanosoma cruzi (strain CL Brener))	0
CCN(C)c1ncnc2c1CCN(C(=O)N1CCCC1)CC2	Tyrosyl-tRNA synthetase, putative (Trypanosoma cruzi (strain CL Brener))	15
CC(=O)N1CCOCC2(CN(Cc3ccc(C)o3)CCO2)C1 (stereo not given)	Tyrosyl-tRNA synthetase, putative (Trypanosoma cruzi (strain CL Brener))	1.28
Cc1nc(COCc2cnc3n2CCN(CC2CCC2)C3C)cs1 (stereo not given)	Tyrosyl-tRNA synthetase, putative (Trypanosoma cruzi (strain CL Brener))	7.5
CC(NC(=O)CNCCn1cccn1)c1ccc2c(c1)CCCC2 (stereo not given)	Tyrosyl-tRNA synthetase, putative (Trypanosoma cruzi (strain CL Brener))	26.8
Cc1cc(C[C@@H]2CCC[C@H]2NCc2cc(C)c(O)c(C)c2)on1	Tyrosyl-tRNA synthetase, putative (Trypanosoma cruzi (strain CL Brener))	9.09
COc1cccc(C(=O)NCC(O)c2cccs2)c1 (stereo not given)	Tyrosyl-tRNA synthetase, putative (Trypanosoma cruzi (strain CL Brener))	17.5
CN(Cc1ccco1)Cc1ccccc1CNC(=O)c1cc[nH]n1	Tyrosyl-tRNA synthetase, putative (Trypanosoma cruzi (strain CL Brener))	4.88
Cc1ccc(OCCC(=O)NC2CCc3nccn3C2)cc1 (stereo not given)	Tyrosyl-tRNA synthetase, putative (Trypanosoma cruzi (strain CL Brener))	13
CCc1csc(C2CCCN(C(=O)c3ccc(OC)nn3)C2)n1 (stereo not given)	Tyrosyl-tRNA synthetase, putative (Trypanosoma cruzi (strain CL Brener))	14.6
COc1cccc(CN(C)C(=O)Nc2ccc3c(c2)OCCO3)c1	Tyrosyl-tRNA synthetase, putative (Trypanosoma cruzi (strain CL Brener))	10.4
CCn1c(C)nnc1CN(C)C1CCN(CCc2ccncc2)C1 (stereo not given)	Tyrosyl-tRNA synthetase, putative (Trypanosoma cruzi (strain CL Brener))	30.6
